Data provenance is PubChem BioAssay (NCI).

# Test: NCI Yeast Anticancer Drug Screen. Data for the bub3 strain (AID 167)
# Measurement Context: S. cerevisiae bub3 mutant strain, at 50.0 µM, hits give high values
Compounds without any hit were thinned out: in the full panel of roughly 79,000, 15% have a hit.
Listing of recorded growth inhibition by entry.
// units = %; emit number, no label

Answered cases to consult:
# lookup: growth inhibition of O=C(O)Cn1ccc(=O)c2ccc([N+](=O)[O-])cc21
23.8

Quick check: growth inhibition of COC(=O)C(N)Cc1ccc(OCc2ccccc2)cc1 (configuration not stated) ?
24.4

Could you tell me which growth inhibition is on file for O=C(O)/N=N\C(=O)O ?
-26.4

Entry N#Cc1ccc(OC(=O)Nc2ccccc2C(F)(F)F)cc1 has what growth inhibition?
-14.9

Consider the compound shown here: O=C(O)CCc1cccc2ccccc12 What is its recorded growth inhibition?
3.35

growth inhibition for O=NN1C2CCCCC2C2CCCCC21 (configuration not stated) ?
26.2

Form field: reported growth inhibition of Cc1cc(N=Nc2ccc(C(=O)Nc3ccc4cc(S(=O)(=O)O)ccc4c3)cc2)c(N)c(N=Nc2ccc(N=Nc3ccc(O)c(C(=O)O)c3)cc2)c1N
-11.3

What value of growth inhibition has been recorded for this entry: CC1=C(Br)C(=O)C(C(C)C)=CC1=O
3.5

As a next step, examine the compound that follows.
Sample S=c1nn[nH]n1C1CCCCC1 — what was its growth inhibition?
0.85
